Measured IC50 Ratio JAK2/JAK1 by item
target: human JAK1 (a.a. 837-1142); experiment: In vitro JAK kinase assay (HTRF, phosphorylation of a biotinylated peptide), JAK1; assay type: biochemical; conditions: measured at 1 mM ATP; JAK2 IC50 / JAK1 IC50
When you answer, write just the number.

// solved cases for IC50 Ratio JAK2/JAK1 follow
Cc1ccc(NC(=O)N2CCC(N3CC(CC#N)(n4cc(-c5ncnc6[nH]ccc56)cn4)C3)CC2)c(F)n1 = 6.7
N#CCC1(n2cc(-c3ncnc4[nH]ccc34)cn2)CN(C2CCN(C(=O)c3cccc(F)c3)CC2)C1 = 5.8

Would you kindly look at the next entry?
Name the recorded IC50 Ratio JAK2/JAK1 of the item N#CCC1(n2cc(-c3ncnc4[nH]ccc34)cn2)CN(C2CCN(C(=O)c3cc(C(F)(F)F)ncc3Cl)CC2)C1 in your answer.
5.7
